# condition_parameters: human
Some compounds, each annotated with its measured Hepatotoxicity (choleostasis).
measurement_kind: Hepatotoxicity (choleostasis)

1) O=c1cc(Cc2ccccc2)[nH]c(=S)[nH]1 [BENZYLTHIOURACIL] ... 1
2) CCN(CC)CCCC(C)Nc1ccnc2cc(Cl)ccc12 (centres undefined) [CHLOROQUINE] ... 1
3) COc1cc(N)c(Cl)cc1C(=O)NC1CCN(CCCOc2ccc(F)cc2)CC1OC (centres undefined) [CISAPRIDE] ... 0
4) CC(C)(CNC(N)=O)NCC(O)COC(=O)c1ccccc1F (centres undefined) [FLESTOLOL] ... 0
5) O=c1n(CCCN2CCN(c3cccc(Cl)c3)CC2)nc2ccccn12 [TRAZODONE] ... 3
6) CO/N=C(\C(=O)N[C@@H]1C(=O)N2C(C(=O)O)=C(COC(N)=O)CS[C@H]12)c1ccco1 [CEFUROXIME] ... 0
7) NC1=NC(=O)C(c2ccccc2)O1 (centres undefined) [PEMOLINE] ... 0
8) OCc1cc(C(O)CNCCCCCCOCCCCc2ccccc2)ccc1O (centres undefined) [SALMETEROL] ... 0
9) Cc1cccc(C)c1OCC(=O)N[C@@H](Cc1ccccc1)[C@@H](O)C[C@H](Cc1ccccc1)NC(=O)[C@H](C(C)C)N1CCCNC1=O [LOPINAVIR] ... 0

* * *

# condition_parameters: human, serum
Some molecules, each annotated with its measured Hepatotoxicity (moderate).
measurement_kind: Hepatotoxicity (moderate)

1) FC(F)(F)C(Cl)Br (configuration not stated) ... 24
2) CCOC(=O)[C@H](CCc1ccccc1)N[C@@H](C)C(=O)N1[C@H](C(=O)O)C[C@H]2CCCC[C@@H]21 ... 2
3) CN[C@@H]1[C@@H](O)[C@@H](O[C@@H]2[C@@H](O)[C@H](O[C@H]3OC(CN)=CC[C@H]3N)[C@@H](N)C[C@H]2N)OC[C@]1(C)O ... 2
4) CC(=O)Oc1cccc2c1C(=O)c1c(OC(C)=O)cc(C(=O)O)cc1C2=O ... 0
5) CC[C@]1(O)C[C@@H]2CN(CCc3c([nH]c4ccccc34)[C@@](C(=O)OC)(c3cc4c(cc3OC)N(C)[C@H]3[C@@](O)(C(=O)OC)[C@H](OC(C)=O)[C@]5(CC)C=CCN6CC[C@]43[C@@H]65)C2)C1 ... 5
6) NS(=O)(=O)c1cc(C2(O)NC(=O)c3ccccc32)ccc1Cl (configuration not stated) ... 0
7) CCc1oc2ccccc2c1C(=O)c1cc(I)c(O)c(I)c1 ... 0

* * *

# experiment_summary: Highest frequency of moderate liver toxicity observed during clinical trials, expressed as a percentage. [column '% BIOL' in source]
# condition_parameters: human
measurement_kind: Hepatotoxicity (moderate) (%)

1. Nc1nnc(-c2cccc(Cl)c2Cl)c(N)n1 [LAMOTRIGINE] ... 7.7
2. CO/N=C(\C(=O)N[C@@H]1C(=O)N2C(C(=O)OCOC(=O)C(C)(C)C)=C(/C=C\c3scnc3C)CS[C@H]12)c1csc(N)n1 [CEFDITOREN PIVOXIL] ... 37.5
3. CCC1(c2ccc(N)cc2)CCC(=O)NC1=O (stereo not given) [AMINOGLUTETHIMIDE] ... 67
4. COc1ccc(CCN(C)CCCC(C#N)(c2cc(OC)c(OC)c(OC)c2)C(C)C)cc1OC (stereo not given) [GALLOPAMIL] ... 4
5. C#C[C@]1(O)CC[C@H]2[C@@H]3CCC4=Cc5oncc5C[C@]4(C)[C@H]3CC[C@@]21C [DANAZOL] ... 42.1
